- Test system: HepG2 (human hepatocellular carcinoma)
- MEASUREMENT_DESCRIPTION: cytotoxic effect on hepatocellular carcinoma cell line, MTS test, 24 hours
- Assay type: cell-based
- CONDITION_SET: 24 hours incubation
- From the text: In these experiments HepG2 (human hepatocellular carcinoma) and MCF7 (Human breast adenocarcinoma) cells were used. […]
REPORTED_PROPERTY: inhibition of HepG2 cells (cytotoxic effect)

>  <SMILES_REPRESENTATION>
CC(C)c1cccc(C(C)C)c1N1C(=O)c2c(F)c(F)c(F)c(NCC(F)(F)F)c2C1=O

>  <TESTED_SYSTEM>
HepG2 (human hepatocellular carcinoma)

>  <RESULT_VALUE>
strongest inhibition

$$$$
>  <SMILES_REPRESENTATION>
CC(C)c1cccc(C(C)C)c1N1C(=O)c2c(F)c(F)c(NCCCN3CCOCC3)c(F)c2C1=O

>  <TESTED_SYSTEM>
HepG2 (human hepatocellular carcinoma)

>  <RESULT_VALUE>
strongest inhibition

$$$$
>  <SMILES_REPRESENTATION>
CC(C)c1cccc(C(C)C)c1N1C(=O)c2c(F)c(F)c(F)c(NCCCN3CCOCC3)c2C1=O

>  <TESTED_SYSTEM>
HepG2 (human hepatocellular carcinoma)

>  <RESULT_VALUE>
strongest inhibition

$$$$
>  <SMILES_REPRESENTATION>
CC(C)c1cccc(C(C)C)c1N1C(=O)c2c(F)c(F)c(F)c(NCc3cccnc3)c2C1=O

>  <TESTED_SYSTEM>
HepG2 (human hepatocellular carcinoma)

>  <RESULT_VALUE>
strongest inhibition

$$$$

# credit: patent US8232299B2
